Test system: arachidonic acid (AA) cascade
Assay: kidney tissue oxylipin/PG levels in LPS induced sepsis in mice
Conditions: kidney tissue 24 h after LPS treatment, LPS +, mean
REPORTED ENDPOINT: 8(9)-EpETrE (nM)
The figure you give is taken to be in nM; do not add the unit.

Input line: Give its 8(9)-EpETrE value. Item: Oc1ccc(/C=C/c2cc(O)cc3c2[C@@H](c2cc(O)cc(O)c2)[C@H](c2ccc(O)cc2)O3)cc1 [ε-Viniferin, ε-viniferin]
Output line: 15

Next item in the queue.
Input line: Give its 8(9)-EpETrE value. Item: Oc1ccc(/C=C/c2cc(O)cc(O)c2)cc1 [Resveratrol, resveratrol]
Output line: 15

* * *

Measured 5-HETE accompanies every entry in the list below.
Test system: arachidonic acid (AA) cascade
Assay: kidney tissue oxylipin/PG levels in LPS induced sepsis in mice;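 note: male C57BL/6N mice challenged with LPS, kidney taken 24 h later, oxylipins quantified by LC-MS after solid-phase extraction of tissue homogenate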
Settings: kidney tissue 24 h after LPS treatment, LPS +, mean
The figure you give is taken to be in nM; do not add the unit.

Input line: Give its 5-HETE value. Item: `O=c1cc(-c2ccc(O)cc2)oc2cc(O)cc(O)c12`
Output line: 12

Input line: Give its 5-HETE value. Item: `Oc1ccc(/C=C/c2cc(O)cc(O)c2)cc1`
Output line: 12

Next item in the queue.
Input line: Give its 5-HETE value. Item: `Oc1ccc(/C=C/c2cc(O)cc3c2[C@@H](c2cc(O)cc(O)c2)[C@H](c2ccc(O)cc2)O3)cc1`
Output line: 13

* * *

Target: COX–2 (Homo sapiens, UniProt P35354)
Sequence (P35354 18-604): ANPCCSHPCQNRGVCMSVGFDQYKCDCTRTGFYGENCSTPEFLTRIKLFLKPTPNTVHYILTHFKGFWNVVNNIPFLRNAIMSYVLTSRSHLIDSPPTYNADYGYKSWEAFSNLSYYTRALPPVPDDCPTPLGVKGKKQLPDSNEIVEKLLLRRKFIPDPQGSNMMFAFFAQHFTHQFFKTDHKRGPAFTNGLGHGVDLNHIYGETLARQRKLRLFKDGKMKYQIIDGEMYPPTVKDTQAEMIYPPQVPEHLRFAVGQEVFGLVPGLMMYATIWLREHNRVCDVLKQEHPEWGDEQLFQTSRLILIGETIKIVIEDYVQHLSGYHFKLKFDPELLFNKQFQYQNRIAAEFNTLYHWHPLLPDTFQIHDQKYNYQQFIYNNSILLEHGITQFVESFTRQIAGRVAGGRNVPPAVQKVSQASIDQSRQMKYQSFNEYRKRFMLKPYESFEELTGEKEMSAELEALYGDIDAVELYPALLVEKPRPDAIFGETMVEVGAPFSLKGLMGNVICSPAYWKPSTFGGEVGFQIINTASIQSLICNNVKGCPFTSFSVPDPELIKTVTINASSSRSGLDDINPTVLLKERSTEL
Test: PGE2 formation in HCA–7 cells (24 h, LC-MS)
Format: cell-based
Settings: non-cytotoxic concentrations, 24 h
REPORTED ENDPOINT: changes of PGE2 formation in HCA–7 cells

Input line: Give its changes of PGE2 formation in HCA–7 cells value. Item: O=C(O[C@@H]1Cc2c(O)cc(O)cc2O[C@@H]1c1cc(O)c(O)c(O)c1)c1cc(O)c(O)c(O)c1 [EGCG, epigallocatechingallat]
Output line: no or only slight

Input line: Give its changes of PGE2 formation in HCA–7 cells value. Item: `O=C1C[C@@H](c2ccc(O)cc2)Oc2cc(O)cc(O)c21`
Output line: affected

Input line: Give its changes of PGE2 formation in HCA–7 cells value. Item: `Oc1ccc(/C=C/c2cc(O)cc3c2[C@@H](c2cc(O)cc(O)c2)[C@H](c2ccc(O)cc2)O3)cc1`
Output line: no or only slight

Input line: Give its changes of PGE2 formation in HCA–7 cells value. Item: `O=c1c(-c2ccc(O)cc2)coc2cc(O)cc(O)c12`
Output line: affected
